Origin of the recorded values: PubChem BioAssay (NCI)

System: MALME-3M melanoma
Assay: NCI-60 one-dose screen, 48 h (100 = growth as untreated, 0 = no growth, -100 = all killed)
Conditions: 10 µM unless noted
The panel holds about 83,000 compounds, 20% with a hit somewhere; the sample as a whole holds those more often. The source made the active and inactive calls. How the source made its calls: active means growth percent below 10; inactive means the rest.
Reported growth values for the following molecules.
Measure Name: growth

Molecule	Reading
COCCn1cc(-c2csc(-c3cn(C)c4ccc(Br)cc34)n2)c2cccnc21	96.6% (inactive)
COC1=CC(c2ccc[nH]2)=N/C1=C\c1[nH]c(C)c(CC(=O)OCc2ccccc2)c1CCC(=O)OCc1ccccc1	-62.1% (active)
Nc1n[nH]c2cccc(C#Cc3cccc(C(=O)Nc4cc(C(F)(F)F)cc(C(F)(F)F)c4)c3)c12	53.4% (inactive)
C=C(C)[C@@H]1CCC[C@]2(COS(=O)(=O)c3ccc(C)cc3)CC[C@]3(C)[C@@H](CC[C@@H]4[C@@]5(C)CCCNC(C)(C)[C@@H]5CC[C@]43C)[C@@H]12	4.1% (active)
CCCCCOC(=O)c1c(C)[nH]c(/C=C2\N=C(c3ccc[nH]3)C=C2OC)c1C	-61.3% (active)
CCC(C)(C)C(=O)O[C@H]1C[C@@H](C)C=C2C=C[C@H](C)[C@H](CC[C@@H]3CC(SCCN)CC(=O)O3)[C@H]21 (some centres not stated)	86.2% (inactive)
CC(=O)N1N=C(c2ccc(C(F)(F)F)c(F)c2)CC1c1[nH]c(C)c(C(=O)NCC(F)(F)F)c1C (configuration not stated)	43.5% (inactive)
CN(C)c1ccc(C(=O)OCCCCCCl)cc1	89% (inactive)
O=[N+]([O-])c1ccc(O)cc1Br	102% (inactive)
N#CC1=C(N)Oc2c(sc3c(Br)cccc23)C1c1ccc(Cl)cc1 (configuration not stated)	50.4% (inactive)
CCOC(=O)c1ccc2c(c1)nc(-c1ccccc1)n2C1CCCCC1	112% (inactive)
CC(=O)N1N=C(c2ccc(Nc3nc(Nc4ccccc4)nc(Nc4ccccc4)n3)cc2)CC1c1ccccc1 (configuration not stated)	78.7% (inactive)
COc1ccc(/C=C(\C#N)n2nnc3ccc(Cl)cc32)cc1	79.5% (inactive)
C=C1C(=O)O[C@H]2[C@H]1CC/C(COC(=O)/C=C\C(=O)NCc1ccc(Cn3c(=O)sn(CCI)c3=O)cc1)=C\CC[C@@]1(C)O[C@@H]21	-30% (active)
CCOC(=O)c1ccc(NC(=O)c2nc(-c3cc(OC)c(OC)c(OC)c3)n(-c3ccc(Cl)cc3)n2)cc1	91.4% (inactive)
Cc1cn(-c2cc(NC(=O)c3cncc(C#Cc4cnc(N)c5ncccc45)c3)cc(C(F)(F)F)c2)cn1	23.8% (inactive)
O=C(Nc1ccc(Oc2cccc(F)c2)c(Cl)c1)c1cccnc1	47.2% (inactive)
CC(=O)c1c(C)nc(SCC(=O)Nc2cccc(O)c2)n1-c1ccc(Cl)cc1	90.8% (inactive)
S=c1sc2c(Cl)nc(-c3cccnc3)nc2n1-c1ccccc1	65.8% (inactive)
CCOC(=O)C1=C(N)Oc2c(sc3c(F)cccc23)C1c1ccc(O)cc1 (configuration not stated)	54.4% (inactive)
CCOC(=O)C1=C(c2ccccc2)N=C2SC=C(c3ccc(Cl)cc3)N2C1c1ccc(Br)cc1 (configuration not stated)	87.4% (inactive)
O=C(Nc1ccc(OS(=O)(=O)c2ccc(F)cc2)cc1)C1CCCCCC1	99.6% (inactive)
N#CC1=C(c2ccccc2)Nc2c(c(-c3ccc(Cl)cc3)nn2-c2ccccc2)C12C(=O)Nc1ccc(Cl)cc12 (configuration not stated)	86.4% (inactive)
Cc1csc(Nc2nc(-c3ccccn3)nc(C(Cl)(Cl)Cl)n2)n1	73.9% (inactive)
CCOCCNC1=C(Cl)C(=O)c2ccccc2C1=O	106% (inactive)
CCN(CC)c1ccc(\C=N/N=C(N)/C(N)=N\N=C/c2ccc(N(CC)CC)cc2)cc1	93.9% (inactive)
O=C1Nc2ccccc2/C1=C/c1nc2ccccc2c(=O)[nH]1	92.8% (inactive)
C=C(CBr)[C@@H]1CC[C@]2(C(=O)O)CC[C@]3(C)[C@H](CC[C@@H]4[C@@]5(C)CCC(=O)C(C)(C)[C@@H]5CC[C@]43C)[C@@H]12	89.4% (inactive)
COCCOc1cc2ncnc(N3CCN(c4ncc(S(=O)(=O)N5CCCCC5)cn4)CC3)c2cc1OCCOC	93.8% (inactive)
N#CSCC1CC(O)(c2ccccc2)CC(c2ccc(F)cc2)O1 (configuration not stated)	29.1% (inactive)
CCN1C(=O)N(CC)C2C1NN=c1s/c(=C\c3ccccc3F)c(=O)n12 (configuration not stated)	52.6% (inactive)
COC(=O)CC[C@@H]1O[C@@H](c2cccc(C(F)(F)F)c2)[C@@H](O)[C@H]1O	99.1% (inactive)
C[C@@H](CO)[C@@H]1CCC=C2CC[C@]3(C)[C@H](CC[C@@H]4[C@@]5(C)CCCNC(C)(C)[C@@H]5CC[C@]43C)[C@H]21	46.6% (inactive)
CC(C)(C)[Si](C)(C)OC1[C@@H](CNC(=O)NC(=O)NC(N)=O)O[C@@H](n2cnc3c(NC(=O)Nc4ccccc4)ncnc32)[C@H]1O[Si](C)(C)C(C)(C)C (some centres not stated)	79% (inactive)
O=c1scc(-c2ccc(C(F)(F)F)cc2)s1	115% (inactive)
CCO/C=N/C1=C(C#N)C(c2ccc(Cl)cc2)c2sc3c(F)cccc3c2O1 (configuration not stated)	71.3% (inactive)
CCCCCCCCCCCCCCCCCCOc1ccccc1CC(=O)OCC[N+](C)(C)C	26.9% (inactive)
